- TESTED TARGET: Fyn (UniProt P06241)
- Sequence (P06241 whole entry, looked up): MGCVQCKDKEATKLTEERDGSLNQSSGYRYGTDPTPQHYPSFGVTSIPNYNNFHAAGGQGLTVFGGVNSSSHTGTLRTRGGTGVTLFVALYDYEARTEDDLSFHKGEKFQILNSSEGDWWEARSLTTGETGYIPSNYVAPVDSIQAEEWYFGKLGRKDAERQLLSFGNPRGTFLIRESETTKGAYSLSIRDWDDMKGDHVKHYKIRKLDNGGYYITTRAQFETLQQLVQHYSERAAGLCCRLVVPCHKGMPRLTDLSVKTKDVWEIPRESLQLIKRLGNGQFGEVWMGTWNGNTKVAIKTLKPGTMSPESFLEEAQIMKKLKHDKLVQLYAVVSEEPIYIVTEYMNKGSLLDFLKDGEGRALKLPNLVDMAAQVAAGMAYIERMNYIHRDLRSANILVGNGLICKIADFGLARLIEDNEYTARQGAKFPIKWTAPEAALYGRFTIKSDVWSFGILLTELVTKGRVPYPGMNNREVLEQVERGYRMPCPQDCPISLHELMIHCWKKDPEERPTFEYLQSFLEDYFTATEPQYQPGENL
- EXPERIMENT DESCRIPTION: phosphorylation enrichment, bacterial display (enrichment ratio); higher = better substrate or ligand; peptides without Tyr show the background;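 also: 11-residue human phosphosite peptides and single-mutation variants displayed on the E. coli surface, counted by deep sequencing, each peptide's frequency after selection divided by its frequency in the unselected input library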;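 also: frequency after pTyr selection over input frequency; kinase dosed for 20-30% of maximal phosphorylation in three min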
READOUT NAME: phosphorylation enrichment

INSERT INTO measurements (record_sequence, measurement) VALUES
  ('IHHIDYFKKTT [FGFR1_Y653_YF]', 0.561),
  ('PNAFIYVVQLP [L1CAM_Y420_A415P_YF]', 0.896),
  ('PTTKTYFPHFG [HBA1_Y43_D48G]', 0.458),
  ('IVRSLYKDLED [VHL_Y185_E186K]', 0.535),
  ('CLAKMYYSAVE [CP_Y539_D544E]', 0.563),
  ('FNDSAYNQQLI [ZPLD1_Y198_T197A_YF]', 0.393),
  ('RQEEEYKRFSE [SFSWAP_Y133_L136F]', 0.602),
  ('SLQFEYVHYGG [CDC14A_Y591_S589F]', 0.516),
  ('IHETTYKSIMK [ACTA1_Y281_N282K]', 0.309),
  ('KLYRVYCDMNT [FGB_Y269_P265L]', 0.608),
  ('LLQKTYNYNVL [SLC4A1_Y553_P548L]', 1.07),
  ('WQQQSYLDLGI [CTNNB1_Y30_S33L]', 0.545),
  ('FETVKYINNER [ABCB7_Y345_F346I_YF]', 0.452),
  ('SETSRYLSELF [KCNJ3_Y67_D70E]', 0.397),
  ('DLAAQYTTVGR [SGSH_Y240]', 0.52),
  ('VNYGAYINDFK [GLB1_Y488]', 0.912),
  ('KTVQDYLKKFY [MMP8_Y36_E38K]', 0.366),
  ('VRTGIYHGGKP [PIK3CA_Y361_E365K]', 0.309),
  ('ELELLYPDRNS [NYX_Y284_L285P]', 0.492),
  ('CCNHPYLINGA [CHD7_Y1256]', 0.57),
  ('YQASYYRRGDR [LTK_Y677_R673Q]', 0.492),
  ('RGRSTYFWPRP [GAGE12J_Y9_YF]', 0.641),
  ('EKLQQYIAPGM [EPHB3_Y600]', 0.334),
  ('FEPWVYSFSFE [PRKDC_Y647_YF]', 6.63),
  ('GLGGGCGGASG [KRT8_Y54_Y54C]', 0.433),
  ('ISSLDYISKTK [VAV3_Y294]', 0.559),
  ('VLPIDYFFPPQ [AR_Y552_YF]', 0.574),
  ('VNTMLYEKFTY [TEK_Y1108_T1106M]', 6.38),
  ('KYLENYYDLKK [MMP3_Y41]', 2.24);

====

Catalogue of phosphorylation enrichment values
- Tested on: AncSZ
- EXPERIMENT DESCRIPTION: phosphorylation enrichment, bacterial display (enrichment ratio); higher = better substrate or ligand; peptides without Tyr show the background
READOUT NAME: phosphorylation enrichment

INSERT INTO measurements (record_sequence, measurement) VALUES
  ('TSSAGYRAAEG [COL6A3_Y543]', 0.524),
  ('SFTDPYAQPPL [KMT2D_Y2378_YF]', 0.787),
  ('YMLYQYLKQIE [RPAP3_Y569_D564Y]', 1.53),
  ('FGFPGYQCKHF [TIMP3_Y177_S179C_YF]', 0.695),
  ('YCRHNYGVGES [HLA-DRB1_Y112_V115G]', 0.686),
  ('NYDLDYDSVQP [MYC_Y16]', 3.13),
  ('IRKAEYPFSSE [ATP2C1_Y452]', 0.595),
  ('KIKLNYTLPQD [NRAP_Y523_N519I]', 0.965),
  ('MGHVNYGAFIN [GLB1_Y485_R482H_YF]', 0.611),
  ('KAIMIYVSSFY [ACTN4_Y260_T259I]', 0.963),
  ('IGCHAYGDQYR [IDH1_Y135_R132C]', 1.04),
  ('IFQASYFRRGD [LTK_Y676_R673Q_YF]', 1.05),
  ('YSTSPYLLEAA [BRIP1_Y921]', 0.887),
  ('ILCTVYAFKMR [GRM3_Y754_T758M]', 1.46),
  ('VERIGYDFIPT [CBS_Y308_G305R]', 0.759),
  ('EHLNRYISDTF [TTLL10_Y446]', 0.737),
  ('MFNPCYGLFEF [NEDD4L_Y680_Y679C_YF]', 1.33),
  ('SFCFRYCCAAR [SUMF1_Y344_R345C_YF]', 1.25),
  ('KDKLPYLFDDP [GPX2_Y125_P126L_YF]', 1.23),
  ('FTGVEYSSCDT [EPHA3_Y937]', 1.12),
  ('PQIVKYRPDCI [LDHB_Y128_S129R]', 0.89),
  ('VLALWYFFLTH [ZDHHC23_Y127_YF]', 1.42),
  ('KVWGIYDCQQP [CYP3A7_Y75]', 1.56),
  ('HNLDYYKQTTN [FGFR3_Y648_K650Q]', 0.979),
  ('SEQNNYSRVAN [CWC22_Y797_R794Q]', 0.705),
  ('SNYRAYATEPQ [TNNI3_Y29_H34Q]', 0.699),
  ('CTTIHQNFMCN [TP53_Y234_Y234Q_YF]', 0.9),
  ('VNKIYYPDFIV [LIG3_Y768]', 1.23),
  ('QEALEYFMKQT [PIK3CA_Y1038_M1043T]', 3.3),
  ('NKHTNYTMEHI [ACTN1_Y708]', 0.509),
  ('AGQKDYDRLRP [RAC3_Y64_E62K]', 0.662),
  ('EHVMPYAANKN [GRIN2A_Y1431]', 0.53),
  ('NYADPYRQLPY [CTNND2_Y503_Q507P]', 0.78),
  ('AALLNYKAGRD [GRIN2A_Y737_V734L]', 0.623),
  ('KTVQDYLKKFY [MMP8_Y36_E38K]', 0.571),
  ('KVQVSYKGDTK [HSPA1A_Y107_E110D]', 0.491),
  ('NKEAICSGYIR [SMCHD1_Y283_Y283C]', 0.794),
  ('FASVEYQEALS [GALNS_Y461_A459V]', 1.01),
  ('SGSFRYGSSCE [SELE_Y390]', 0.642),
  ('AGRSGYDNREI [BCL2_Y9_T7S]', 0.574),
  ('AAVDEYLEHRR [FAM221A_Y17_Y20H]', 0.96),
  ('EEQKKYFNAMK [SCN5A_Y1494_YF]', 0.882),
  ('DRTGHYLCNAC [GATA1_Y223]', 0.691),
  ('NTQRPYYKGGG [TYROBP_Y111]', 0.516),
  ('VEDQFYRVDCF [FHL1_Y208_C209R_YF]', 1.16),
  ('SLQFEYVHYGG [CDC14A_Y591_S589F]', 1.06),
  ('ISGGGYRARPA [FGB_Y71]', 0.485),
  ('HEHVGYTTLNR [CHN1_Y148_Y143H]', 0.63),
  ('AGDGRYEVLFL [SEMA3F_Y478_A474G]', 0.94),
  ('HIKHNYECLVY [XRCC5_Y416]', 1.05),
  ('SLFNGYVFSGM [NEIL3_Y71_V76M_YF]', 0.954),
  ('PGQRVYVVAER [SHH_Y316]', 0.883),
  ('TENAGYYFQVS', 1.39),
  ('PYRFIYMAVQH [PTPN11_Y515_Q510P]', 1.92),
  ('GVKLTYGDAQN [SLC28A1_Y404]', 0.726),
  ('STKELYEKYMI', 0.805),
  ('PGRRFYVVACD [RNASE3_Y134]', 1.43),
  ('LISVSYDDWDF [GRIN2A_Y281_YF]', 3.36);

====

- TESTED TARGET: Hck (UniProt P08631)
- Sequence (P08631 whole entry, looked up): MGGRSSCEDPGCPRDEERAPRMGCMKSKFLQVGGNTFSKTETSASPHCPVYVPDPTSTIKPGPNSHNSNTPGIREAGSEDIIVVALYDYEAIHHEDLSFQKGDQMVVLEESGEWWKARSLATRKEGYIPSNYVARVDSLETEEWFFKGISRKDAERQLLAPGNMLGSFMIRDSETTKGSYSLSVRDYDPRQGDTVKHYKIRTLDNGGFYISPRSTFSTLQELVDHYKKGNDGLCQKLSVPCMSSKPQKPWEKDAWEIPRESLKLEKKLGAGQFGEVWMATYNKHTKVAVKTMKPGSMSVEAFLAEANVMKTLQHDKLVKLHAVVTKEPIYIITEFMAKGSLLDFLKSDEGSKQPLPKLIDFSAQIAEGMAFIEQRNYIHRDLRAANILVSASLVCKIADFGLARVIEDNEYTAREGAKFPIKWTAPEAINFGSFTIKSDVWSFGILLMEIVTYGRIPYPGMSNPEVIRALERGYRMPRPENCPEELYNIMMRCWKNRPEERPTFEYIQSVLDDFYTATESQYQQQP
- EXPERIMENT DESCRIPTION: phosphorylation enrichment, bacterial display (enrichment ratio); higher = better substrate or ligand; peptides without Tyr show the background
Dear colleague, classification is by phosphorylation enrichment, with ranges listed here: small value (below 0.5), mid value (0.5 to below 0.6), large value (0.6 or more)

INSERT INTO measurements (record_sequence, class_label) VALUES
  ('NNKKDYYDMYE [SLC26A3_Y526_K521N]', 'large value'),
  ('TTTQAYRVNER [PRKN_Y391_D394N]', 'small value'),
  ('LRSELYSLIAR [PHIP_Y16_F17S]', 'large value'),
  ('VHLFAYDWISI [BEST1_Y227_G222V_YF]', 'large value'),
  ('RSACTYLAPHL [PLK3_Y615_S618P]', 'large value'),
  ('EQRRAYLEGTC [HLA-C_Y183_L180R]', 'mid value'),
  ('MEYAKYGSLRG [RET_Y809_V804M]', 'large value'),
  ('IKELTYQMEED [MYH7_Y1852_T1854M]', 'large value'),
  ('RSPLRYTSILT [OR51B6_Y130]', 'small value'),
  ('PGQRVYVVAER [SHH_Y316]', 'mid value'),
  ('ELQGTYTSLQQ [KIF3C_Y574_R571Q]', 'large value'),
  ('SLFNGYVFSGM [NEIL3_Y71_V76M_YF]', 'mid value'),
  ('VIIVLYFSLWK [SLC6A2_Y249_V245I]', 'small value'),
  ('FDCKWYIPLTD [BCR_Y756_YF]', 'mid value'),
  ('VDESLYKTHPQ [HK1_Y417_G414E]', 'large value'),
  ('TRSCKYLLLSM [NF1_Y491_Y489C]', 'mid value'),
  ('LRAGVYREKDQ [DNM2_Y626_P627R]', 'small value'),
  ('LLREWYVQDPF [SIX3_Y225_L226V_YF]', 'mid value'),
  ('RDWSLYFKIIE [KRT18_Y129_H128L]', 'small value'),
  ('TGEKLYQRKEF [ZNF283_Y627]', 'mid value'),
  ('LDVDVYGPSVP [NUBPL_Y109]', 'large value'),
  ('IQVNAYFSPIH [ADSL_Y432_D430N]', 'mid value'),
  ('KTVQDYLKKFY [MMP8_Y36_E38K]', 'small value'),
  ('ITKNPYDPPGR', 'small value'),
  ('ADARMYGVLLW [PLP1_Y207_P211L]', 'large value'),
  ('RASSVFTRSTG [CCR5_Y339_Y339F]', 'mid value'),
  ('QMQAAYQKVVA [HBD_Y131]', 'small value'),
  ('NPQKSYFIHLY [WAS_Y83_R86H]', 'mid value');
